Answer each item with its documented log10 of LD50.
Tested on: adult female mosquitoes
Assay: whole plant or invertebrate
Details: topical, 24 h, read-out: 24-hour Mortality LD50 (μg/g mosquito)
Transform log10 | Measure LD50 | Unit mg/kg

For orientation, consider the following solved cases.
{"compound": "Cc1cc(O)c(C(=O)CCC(C)C)c(=O)o1 [Pogostone, 3-(4-Methylpentanoyl)-4-hydroxy-2H]", "log10 of LD50": 2.42}
{"compound": "CCCC(=O)c1c(O)c2ccccc2oc1=O [Formula 14]", "log10 of LD50": 2.14}
{"compound": "Cc1cc(O)c(C(=O)CC(O)C(C)C)c(=O)o1 (stereo not drawn) [Formula C10]", "log10 of LD50": 1.46}

The following compounds each have a reported value; give each one's log10 of LD50.
1. Cc1cc(O)c(C(=O)COC(C)C)c(=O)o1 [Formula C3]
2. CC(C)C(=O)c1c(O)c2ccccc2oc1=O [Formula 19]
3. CC(C)CCC(=O)c1c(O)c2ccccc2oc1=O [Formula 13]
4. Cc1ccc(C(C)C)cc1O [Carvacrol, reference compound]
5. O=C(c1c(O)c2ccccc2oc1=O)C1CCC1 [Formula 27]
6. CCOCC(=O)c1c(O)cc(C)oc1=O [Formula C8]

2.26
1.40
2.08
3.53
1.46
2.41

* * *

Answer each item with its documented LD50 (ug/g fly).
Test system: house flies
Assay: Topical application on house flies
Details: House Fly Toxicity; topical
Answers are plain numbers, in ug/g fly.

For orientation, consider the following solved cases.
{"molecule": "CC(C)C(=O)c1c(O)c2ccccc2oc1=O [Formula 19]", "LD50 (ug/g fly)": 1495}
{"molecule": "CC(C)CCC(=O)c1c(O)c2ccccc2oc1=O [Formula 13]", "LD50 (ug/g fly)": 5950}
{"molecule": "CC(C)C(=O)c1c(O)c2cc(F)ccc2oc1=O [Formula 30]", "LD50 (ug/g fly)": 645}

Then this molecule:
Per the records, this molecule ( O=C(c1c(O)c2ccccc2oc1=O)C1CC1 [Formula 29] ) has LD50 (ug/g fly) equal to 1761

* * *

System: adult female mosquitoes
Assay: whole plant or invertebrate
Settings: Culicidae, topical, 1 h, read-out: Knockdown at 0.5%
Answer each item with its documented pest or weed control at 0.5 %.
One number for each entry, in %.

For orientation, consider the following solved cases.
{"compound": "C=CCCC(=O)c1c(O)cc(C)oc1=O [Formula C26]", "pest or weed control at 0.5 % (%)": 100}
{"compound": "CC(C)C(O)CC(=O)c1c(O)c2ccccc2oc1=O (stereo not shown) [Formula C25]", "pest or weed control at 0.5 % (%)": 93}

The following compounds each have a reported value; give each one's pest or weed control at 0.5 %.
1. Cc1cc2occ(CC(C)C)c(=O)c2c(=O)o1 [Formula C22]
2. C=C(C)C(O)CC(=O)c1c(O)cc(C)oc1=O (stereo not shown) [Formula C19]
3. Cc1cc(O)c(C(=O)CCC=O)c(=O)o1 [Formula C18]
4. Cc1cc(O)c(C(=O)/C=C/C(C)(C)C)c(=O)o1 [Formula C21]

10
83
3
3

The following compounds each have a reported value; give each one's pest or weed control at 0.5 %.
1. Cc1cc2c(c(=O)o1)C(=O)CC(C(C)C)O2 (stereo not shown) [Formula C16]
2. Cc1cc(O)c(C(=O)CCC(O)CBr)c(=O)o1 (stereo not shown) [Formula C20]
3. Cc1cc(O)c(C(=O)CC(O)C2CCCCC2)c(=O)o1 (stereo not shown) [Formula C15]

1: 0; 2: 17; 3: 23

The following compounds each have a reported value; give each one's pest or weed control at 0.5 %.
1. CC(C)CCC(=O)C1C(=O)N(C)C(=O)N(C)C1=O [Formula C24]
2. Cc1cc(O)c(C(=O)COCC(=O)O)c(=O)o1 [Formula C14]
3. CC(=O)CCC(=O)c1c(O)cc(C)oc1=O [Formula C17]

1. 93
2. 7
3. 27

Per the records, this compound ( CC(=O)c1c(O)c2ccccc2oc1=O [Formula C27] ) has pest or weed control at 0.5 % equal to 100

The reported numbers originate from patent US20200024246A1.
